Value source: PubChem BioAssay (EPA / NIEHS)

Test: CEETOX_H295R_CORTISOL: CeeTox H295R High-throughput Steroidogenesis Assay for Cortisol (AID 2283438);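 note: cortisol secreted into medium quantified by LC-MS/MS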
Conditions: actives raise or lower the signal
Active and inactive are the calls of the source. Rule for the calls: active = hit-call score of the fitted dose curve at least 0.9, where 1 is the maximum; inactive = score below 0.9.
Measurement Kind: outcome

Looking up C=CC1(C)OC(=O)N(c2cc(Cl)cc(Cl)c2)C1=O (centres undefined) , I found its outcome recorded as inactive

Looking up CCNc1nc(Cl)nc(NC(C)C)n1 , I found its outcome recorded as inactive

Looking up CCOc1cc(Oc2ccc(C(F)(F)F)cc2Cl)ccc1[N+](=O)[O-] , I found its outcome recorded as inactive

Looking up COc1nc(NC(C)C)nc(NC(C)C)n1 , I found its outcome recorded as inactive
